Origin of values: patent US6576640B1

# measured_target: dopamine D2 receptor (Homo sapiens, UniProt P14416)
# Sequence (P14416 whole entry, species assumed): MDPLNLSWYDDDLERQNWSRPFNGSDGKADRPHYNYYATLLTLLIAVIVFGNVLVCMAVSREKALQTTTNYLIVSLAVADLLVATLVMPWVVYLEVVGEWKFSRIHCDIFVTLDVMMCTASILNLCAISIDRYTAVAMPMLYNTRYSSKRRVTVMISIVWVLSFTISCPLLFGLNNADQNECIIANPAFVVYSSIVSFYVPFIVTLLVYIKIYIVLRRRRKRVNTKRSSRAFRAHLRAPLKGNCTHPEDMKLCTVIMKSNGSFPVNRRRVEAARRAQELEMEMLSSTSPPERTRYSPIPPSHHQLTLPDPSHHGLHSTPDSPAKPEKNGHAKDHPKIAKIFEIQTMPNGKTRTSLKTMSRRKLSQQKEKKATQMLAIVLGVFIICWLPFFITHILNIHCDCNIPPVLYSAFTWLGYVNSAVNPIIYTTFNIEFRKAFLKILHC
# test_summary: Receptor binding affinity for dopamine D2 (dissociation α2a / D2)
# assay_conditions: ratio of IC50 D2 to IC50 α2a
readout_kind: Ratio D2/α2a (dissociation between the two receptors)

| compound | data_value |
| --- | --- |
| O=C(CCCN1CCc2oc3ccccc3c2C1)c1ccc(F)cc1 [reference compound] | 102 |
| O=C(CCCN1CCc2[nH]c3ccccc3c2C1)c1ccc(F)cc1 [reference compound] | 2.5 |
| O=C(CCCCCN1CCc2[nH]c3ccccc3c2C1)c1ccc(F)cc1 | 79 |
| O=C(CCCCCN1CCc2oc3ccccc3c2C1)c1ccc(F)cc1 | 1950 |

* * *

# measured_target: dopamine D2 receptor (Homo sapiens)
# test_summary: Receptor binding affinity for dopamine D2 (dissociation α2a / D2)
# assay_conditions: receptor binding affinity, dopamine D2
pIC50: −log10 of the molar value.
readout_kind: pIC50

| compound | data_value |
| --- | --- |
| O=C(CCCN1CCc2oc3ccccc3c2C1)c1ccc(F)cc1 [reference compound] | 6.68 |
| O=C(CCCCCN1CCc2[nH]c3ccccc3c2C1)c1ccc(F)cc1 | 6.40 |
| O=C(CCCN1CCc2[nH]c3ccccc3c2C1)c1ccc(F)cc1 [reference compound] | 7.00 |
| O=C(CCCCCN1CCc2oc3ccccc3c2C1)c1ccc(F)cc1 | 6.30 |

* * *

As shown below, each of these compounds has a reported IC50 value.
# measured_target: cloned human α2A receptors (Homo sapiens, UniProt P08913)
# Sequence (P08913 1-465): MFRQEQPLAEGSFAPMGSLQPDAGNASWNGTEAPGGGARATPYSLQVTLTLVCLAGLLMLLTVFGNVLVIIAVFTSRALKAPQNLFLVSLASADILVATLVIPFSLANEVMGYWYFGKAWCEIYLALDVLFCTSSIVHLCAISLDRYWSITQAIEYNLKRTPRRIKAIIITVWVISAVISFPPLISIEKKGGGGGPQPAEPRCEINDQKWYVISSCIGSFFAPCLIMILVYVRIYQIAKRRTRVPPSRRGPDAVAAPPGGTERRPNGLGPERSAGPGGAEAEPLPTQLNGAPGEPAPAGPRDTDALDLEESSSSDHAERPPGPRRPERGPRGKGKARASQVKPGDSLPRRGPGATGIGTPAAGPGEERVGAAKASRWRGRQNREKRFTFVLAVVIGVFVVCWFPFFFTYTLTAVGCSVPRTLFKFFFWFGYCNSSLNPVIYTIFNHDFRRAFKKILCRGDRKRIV

| compound | measured_target | IC50 |
| --- | --- | --- |
| O=C(CCCCCN1CCc2oc3ccccc3c2C1)c1ccc(F)cc1 | cloned human α2A receptors (Homo sapiens, UniProt P08913) | 0.26 nM |
| O=C(CCCCCN1CCc2[nH]c3ccccc3c2C1)c1ccc(F)cc1 | cloned human α2A receptors (Homo sapiens, UniProt P08913) | 5 nM |
| O=C(CCCN1CCc2oc3ccccc3c2C1)c1ccc(F)cc1 [reference compound] | cloned human α2A receptors (Homo sapiens, UniProt P08913) | 2.1 nM |
| O=C(CCCN1CCc2[nH]c3ccccc3c2C1)c1ccc(F)cc1 [reference compound] | cloned human α2A receptors (Homo sapiens, UniProt P08913) | 41 nM |
